src = PubChem BioAssay (Tox21)

- TEST_PROTOCOL: qHTS assay to identify small molecule agonists of the androgen receptor (AR) signaling pathway in the presence of an antagonist - cell viability counter screen (AID 1259379); note: nearly all actives have a fitted effect of over 25% in size
- TEST_CONDITIONS: MDA-kb2 viability, CellTiter-Fluor, 16 h; series mostly up to 92.4 µM
Inconclusive results are not listed. Active and inactive are the calls of the source. Calls come from the whole dose curve; as a rule, active = well fitted cell-killing curve with a large enough effect in the repeat runs; inconclusive = weak or mixed curves, or effect the other way; inactive = flat fitted curve, though single readings scatter.
Permitted responses: active, inactive

CC(=O)Nc1ccccc1C    inactive
N#C[C@@H]1C[C@@H]2C[C@@H]2N1C(=O)[C@@H](N)C12CC3CC(CC(O)(C3)C1)C2    inactive
Cc1nc2ccccc2s1    inactive
C[Si]1(C)O[Si](C)(C)O[Si](C)(C)O1    inactive
C/C(=N/NC(=O)c1ccncc1)C(=O)O    inactive
CCOC(=O)N1CCC(n2c(=O)[nH]c3cc(Cl)ccc32)CC1    active
CC(=O)Nc1ccc(N)cc1    inactive
OCCSc1ccccc1    inactive
CCC(=O)OC/C=C/c1ccccc1    inactive
CCCC1C(CC)=CC(CC)=CN1c1ccccc1 (configuration not stated)    active

Called result for CCCOCCOCCO
inactive

Called result for CCCCCCCC/C=C\CCCCCCCC(=O)OC
inactive

Called result for Cc1cc(O)c(C(C)C)cc1Cl
inactive

* * *

- TEST_PROTOCOL: qHTS assay to identify small molecule antagonists of the thyroid receptor (TR) signaling pathway (AID 743065); note: nearly all actives have a fitted effect of over 55% in size
- TEST_CONDITIONS: GH3.TRE-Luc, T3-stimulated luciferase inhibition, 23.5 h; series mostly up to 70.3 µM
Results filed as inconclusive are left out. The source made the active and inactive calls. The call rests on the fitted dose curve; in most records, active means well fitted inhibition curve with a large enough effect in the repeat runs; inconclusive means weak or mixed curves; inactive means no such curve, though single readings can be large or run the other way.
Permitted responses: yes (1) for active, no (0) for inactive

Use these answered entries as a reference point.
CO[Si](C)(OC)OC    no (0)
O=C(O)c1cccc(O)c1    no (0)
CC(=O)Nc1ccccc1C    no (0)
CC(C)c1nnc2ccc(-c3ocnc3-c3cc(F)ccc3F)cn12    no (0)
COc1ccc(CCC(=O)c2c(O)cc(O[C@@H]3O[C@H](CO)[C@@H](O)[C@H](O)[C@H]3O[C@@H]3O[C@@H](C)[C@H](O)[C@@H](O)[C@H]3O)cc2O)cc1O    no (0)
C[Si]1(C)O[Si](C)(C)O[Si](C)(C)O1    no (0)
O=C(O)Cc1ccc(-c2ccccc2)cc1    no (0)
Nc1ccc(Cl)cc1[N+](=O)[O-]    no (0)
O=C1OCCN1/N=C/c1ccc([N+](=O)[O-])o1    no (0)
CCCCCC=CCC=CCCCCCCCC(=O)OCC    no (0)

Called result for Fc1c(F)c(F)c(Br)c(F)c1F
no (0)

Called result for O=C(O)C(Cc1cc(I)c(O)c(I)c1)c1ccccc1 (stereo unspecified)
no (0)

Called result for CC1=CC(O)CC(C)(C)C1 (stereo unspecified)
no (0)

Called result for CSc1ccc(Oc2ccc(S(N)(=O)=O)cc2CN(C)C)cc1C
yes (1)

Called result for CCCC(=O)O[C@]1(C(=O)COC(=O)CC)CC[C@H]2[C@@H]3CCC4=CC(=O)CC[C@]4(C)[C@H]3[C@@H](O)C[C@@]21C
no (0)

Called result for C=CCOC(=O)/C=C\C(=O)OCC=C
no (0)

Called result for CCc1cccc(N(C)C(N)=Nc2cccc3ccccc23)c1
yes (1)

Called result for O=Cc1c(Cl)cccc1Cl
no (0)

Called result for CCOC(=O)/C=C/C(=O)O
no (0)

Called result for CC(C)C(=O)O
no (0)

Called result for CCCCCCCCCOC(C)=O
no (0)

Called result for C[N+]1(C)CCC(=C(c2ccccc2)c2ccccc2)CC1
no (0)

Called result for CCCCC(CC)COC(=O)COc1ccc(Cl)cc1C (stereo unspecified)
no (0)

Called result for OC/C(Br)=C(\Br)CO
no (0)

Called result for c1ccc(COCc2ccccc2)cc1
no (0)

Called result for C=CC(C)(O)CCCC(C)CCCC(C)CCCC(C)C (stereo unspecified)
no (0)

Called result for O=C1NCCN1
no (0)

Called result for CCn1nc(C)c2c1C(=O)NCC(c1ccc(O)cc1)=N2
no (0)

Called result for C[N+](C)(C)CCOC(N)=O
no (0)

Called result for CO[C@H]1C=CO[C@@]2(C)Oc3c(C)c(O)c4c(O)c(c5c(c4c3C2=O)=NC2(CCN(CC(C)C)CC2)N=5)NC(=O)/C(C)=C\C=C/[C@H](C)[C@H](O)[C@@H](C)[C@@H](O)[C@@H](C)[C@H](OC(C)=O)[C@@H]1C
yes (1)

Called result for CCC(=O)Oc1ccc(/C(CC)=C(\CC)c2ccc(OC(=O)CC)cc2)cc1
yes (1)

Called result for CC[C@@H]([C@H](C)O)n1ncn(-c2ccc(N3CCN(c4ccc(OC[C@@H]5CO[C@@](Cn6cncn6)(c6ccc(F)cc6F)C5)cc4)CC3)cc2)c1=O
yes (1)
